Values were extracted from paper PMC10716148.

Test system: B16F10 melanoma cells
Test: Anti-melanogenic assay (melanin content) in B16F10 cells
Format: cell-based, Murine
Settings: Mus musculus, B16-F10, 72 h treatment, mean ± SD (n = 3)
Procedure: Murine melanoma B16F10 cells (obtained from DS Pharma Biomedical, Japan) were cultivated in Dulbecco's Modified Eagle Medium (DMEM), a liquid medium supplemented with 10% fetal bovine serum (FBS) and 1% penicillin/streptomycin. The cells were incubated at a temperature of 37 °C within a controlled humidified environment containing 5% CO2. […] Subsequently, the cells were subjected to staining with trypan blue solution and quantified using a hemocytometer for further analysis. […]
measured-quantity: IC50 (µM)
Give your result in µM as a bare value.

{"columns": ["compound", "unit-symbol", "recorded-value"],
 "data": [
  ["OC[C@H]1O[C@@H](Oc2ccc(O)cc2)[C@H](O)[C@@H](O)[C@@H]1O", "µM", 808]
]}

Now look at this one.
Param item = C[C@@H]1O[C@@H](Oc2cc(O)c3c(=O)c(O)c(-c4ccc(O)cc4)oc3c2)[C@H](O)[C@H](O)[C@H]1O [Compound 3, kaempferol-7-O-α-L-rhamnopyranoside] ; retrieve measured IC50.
23

====

compounds and their reported remaining at 720 h
assay: Accelerated stability test, chemical stability by HPLC; format: physicochemical; details: cosmetic formulation F1, after 30 days (1 month) at 45 °C

{"columns": ["compound", "remaining at 720 h"],
 "data": [
  ["OC[C@H]1O[C@@H](Oc2ccc(O)cc2)[C@H](O)[C@@H](O)[C@@H]1O", "> 90%"]
]}

Turning to the following compound.
What remaining at 720 h value was documented for this compound, C[C@@H]1O[C@@H](Oc2cc(O)c3c(=O)c(O)c(-c4ccc(O)cc4)oc3c2)[C@H](O)[C@H](O)[C@H]1O [Compound 3, kaempferol-7-O-α-L-rhamnopyranoside] ?
> 90%
